Where do these numbers come from? They come from patent US5539119A.

# Test system: Guinea Pig Ileal Longitudinal Muscle
# method-summary: GPI, shift of the compound's effect by naloxone or nor-BNI
# Parameters: unit not given here
# condition-parameters: nor-BN1
For each record, check the reported GPI nor-BN1 Ke: if it is below 60 write Satisfied, else write Not satisfied.

compound | tested-target | qualitative-label
Oc1cccc([C@]23CCN(CC4CC4)C[C@@H]2Cc2c([nH]c4c(F)cccc24)C3)c1 (relative stereo) | Guinea Pig Ileal Longitudinal Muscle | Satisfied
Oc1cccc([C@]23CCN(CC4CC4)C[C@@H]2Cc2c([nH]c4c(Cl)cccc24)C3)c1 (relative stereo) | Guinea Pig Ileal Longitudinal Muscle | Satisfied
CN1CC[C@]2(c3cccc(O)c3)Cc3[nH]c4ccc(Cl)cc4c3C[C@H]2C1 (relative stereo) | Guinea Pig Ileal Longitudinal Muscle | Not satisfied
CN1CC[C@]2(c3cccc(O)c3)Cc3[nH]c4ccccc4c3C[C@H]2C1 (relative stereo) | Guinea Pig Ileal Longitudinal Muscle | Not satisfied
CN1CC[C@]2(c3cccc(O)c3)Cc3[nH]c4ccccc4c3C[C@@]2(O)C1 (relative stereo) | Guinea Pig Ileal Longitudinal Muscle | Satisfied
CN1CC[C@]2(c3cccc(O)c3)Cc3[nH]c4ccc(Br)cc4c3C[C@H]2C1 (relative stereo) | Guinea Pig Ileal Longitudinal Muscle | Not satisfied

###

# Tested on: δ opioid receptor
# method-summary: Bonding (binding) assay, guinea pig brain homogenate, DPDPE (hot) / DADLE (cold)
# condition-parameters: μ/δ
Mark y only when Ki ratio μ/δ stays strictly below 100. Values equal to the cut-off are n.

compound | qualitative-label
Oc1cccc([C@]23CCN(CC4CC4)C[C@@H]2Cc2c([nH]c4ccc(F)cc24)C3)c1 (relative stereo) | y
Oc1cccc([C@]23CCN(CC4CC4)C[C@]2(O)Cc2c([nH]c4ccccc24)C3)c1 (relative stereo) | n
Cn1c2c(c3ccccc31)C[C@H]1CN(CC3CC3)CC[C@]1(c1cccc(O)c1)C2 (relative stereo) | y
Oc1cccc([C@]23CCN(CC4CC4)C[C@@H]2Cc2c([nH]c4c(Cl)cccc24)C3)c1 (relative stereo) | n
Oc1cccc([C@]23CCN(CC4CC4)C[C@@H]2Cc2c([nH]c4c(F)cccc24)C3)c1 (relative stereo) | n
CN1CC[C@]2(c3cccc(O)c3)Cc3[nH]c4c(F)cccc4c3C[C@H]2C1 (relative stereo) | n
CN1CC[C@]2(c3cccc(O)c3)Cc3c(c4ccccc4n3C)C[C@H]2C1 (relative stereo) | y
C=CCN1CC[C@]2(c3cccc(O)c3)Cc3[nH]c4ccccc4c3C[C@H]2C1 (relative stereo) | n

###

compounds and their reported Ki
# tested-target: δ opioid receptor (Cavia porcellus, UniProt A0A286XTF2)
# Construct: the homogenate of the brain of a guinea pig; from tissue; host or cells: guinea pig brain homogenate
# Sequence (A0A286XTF2 1-366): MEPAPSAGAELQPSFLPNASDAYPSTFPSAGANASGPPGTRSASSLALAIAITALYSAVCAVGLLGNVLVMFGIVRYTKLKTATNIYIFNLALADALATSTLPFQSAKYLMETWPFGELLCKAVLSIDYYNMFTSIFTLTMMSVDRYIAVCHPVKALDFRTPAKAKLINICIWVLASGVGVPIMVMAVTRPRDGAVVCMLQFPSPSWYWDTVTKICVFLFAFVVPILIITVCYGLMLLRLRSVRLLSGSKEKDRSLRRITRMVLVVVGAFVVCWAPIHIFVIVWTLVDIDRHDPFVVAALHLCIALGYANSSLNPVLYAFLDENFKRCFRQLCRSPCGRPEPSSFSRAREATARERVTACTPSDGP
# method-summary: Bonding (binding) assay, guinea pig brain homogenate, DPDPE (hot) / DADLE (cold)
# condition-parameters: guinea pig brain homogenate; read-out: Bonding assay Ki value δ
quantity: Ki (nM)

compound | unit | test-value
Cc1ccc2[nH]c3c(c2c1)C[C@H]1CN(C)CC[C@]1(c1cccc(O)c1)C3 (relative stereo) | nM | 1240
CN1CC[C@]2(c3cccc(O)c3)Cc3[nH]c4ccccc4c3C[C@H]2C1 (relative stereo) | nM | 193
CN1CC[C@]2(c3cccc(O)c3)Cc3[nH]c4ccc(Br)cc4c3C[C@H]2C1 (relative stereo) | nM | 1390
CN1CC[C@]2(c3cccc(O)c3)Cc3[nH]c4ccc(Cl)cc4c3C[C@H]2C1 (relative stereo) | nM | 1100
Oc1cccc([C@]23CCN(CC4CC4)C[C@@H]2Cc2c([nH]c4ccccc24)C3)c1 (single isomer, unassigned) | nM | 135
CN1CC[C@]2(c3cccc(O)c3)Cc3c(c4ccccc4n3C)C[C@H]2C1 (relative stereo) | nM | 120

###

# tested-target: δ-receptor (Mus musculus)
# Construct: from tissue; host or cells: mouse vas deferens
# Sequence (P32300 whole entry): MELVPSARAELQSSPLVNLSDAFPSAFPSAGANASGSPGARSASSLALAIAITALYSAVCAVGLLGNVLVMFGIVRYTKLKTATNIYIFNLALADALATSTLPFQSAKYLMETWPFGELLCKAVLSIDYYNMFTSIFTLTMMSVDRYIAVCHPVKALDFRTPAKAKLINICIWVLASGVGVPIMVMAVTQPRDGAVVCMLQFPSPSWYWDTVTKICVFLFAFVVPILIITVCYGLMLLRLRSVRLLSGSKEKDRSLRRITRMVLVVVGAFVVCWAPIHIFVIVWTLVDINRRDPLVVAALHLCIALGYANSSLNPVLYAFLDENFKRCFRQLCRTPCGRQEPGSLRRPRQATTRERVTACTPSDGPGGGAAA
# method-summary: Antagonism to DPDPE in Mouse Vas Deferens (MVD)
# condition-parameters: at 100 nM
Below, each entry is listed alongside its reported MVD Antagonism to DPDPE at 100 nM, DR.
quantity: MVD Antagonism to DPDPE at 100 nM, DR

molecule | tested-target | test-value
CN1CC[C@]2(c3cccc(O)c3)Cc3[nH]c4ccccc4c3C[C@H]2C1 (relative stereo) | δ-receptor (Mus musculus) | 8.14
Oc1cccc([C@]23CCN(CC4CC4)C[C@@H]2Cc2c([nH]c4ccc(F)cc24)C3)c1 (relative stereo) | δ-receptor (Mus musculus) | 8.93
Cc1ccc2[nH]c3c(c2c1)C[C@H]1CN(C)CC[C@]1(c1cccc(O)c1)C3 (relative stereo) | δ-receptor (Mus musculus) | 3.37
CN1CC[C@]2(c3cccc(O)c3)Cc3c(c4ccccc4n3C)C[C@H]2C1 (relative stereo) | δ-receptor (Mus musculus) | 8.27
CN1CC[C@]2(c3cccc(O)c3)Cc3[nH]c4ccc(Cl)cc4c3C[C@H]2C1 (relative stereo) | δ-receptor (Mus musculus) | 5.16
C=CCN1CC[C@]2(c3cccc(O)c3)Cc3[nH]c4ccccc4c3C[C@H]2C1 (relative stereo) | δ-receptor (Mus musculus) | 4.84
CN1CC[C@]2(c3cccc(O)c3)Cc3[nH]c4c(F)cccc4c3C[C@H]2C1 (relative stereo) | δ-receptor (Mus musculus) | 15.0

###

In this section, each of the compounds is paired with its reported IC50.
# Test system: mouse T cells
# method-summary: Inhibiting proliferation of mouse T cells by Con-A stimulation ([3H]thymidine uptake, spleen cells)
# Assay type: cell-based
# condition-parameters: Mus musculus, T-cell, ConA-stimulated mouse T cells; read-out: IC50, activity in inhibiting T cell hyperplasia (Table 3)
quantity: IC50 (µg/mL)

compound | tested-target | test-value
Oc1cccc([C@]23CCN(CC4CC4)C[C@@H]2Cc2c([nH]c4ccc(F)cc24)C3)c1 (relative stereo) [Compound 37] | mouse T cells | 1.9
Cn1c2c(c3ccccc31)C[C@H]1CN(CC3CC3)CC[C@]1(c1cccc(O)c1)C2 (relative stereo) [Compound 25] | mouse T cells | 3
Oc1cccc([C@]23CCN(CC4CC4)C[C@@H]2Cc2c([nH]c4c(F)cccc24)C3)c1 (relative stereo) [Compound 29] | mouse T cells | 0.9
Oc1cccc([C@]23CCN(CC4CC4)C[C@@H]2Cc2c([nH]c4c(Cl)cccc24)C3)c1 (relative stereo) [Compound 40] | mouse T cells | 2.6

###

μ opioid receptor (Cavia porcellus) Ki data
Sequence (A0ACM8Q262 1-400): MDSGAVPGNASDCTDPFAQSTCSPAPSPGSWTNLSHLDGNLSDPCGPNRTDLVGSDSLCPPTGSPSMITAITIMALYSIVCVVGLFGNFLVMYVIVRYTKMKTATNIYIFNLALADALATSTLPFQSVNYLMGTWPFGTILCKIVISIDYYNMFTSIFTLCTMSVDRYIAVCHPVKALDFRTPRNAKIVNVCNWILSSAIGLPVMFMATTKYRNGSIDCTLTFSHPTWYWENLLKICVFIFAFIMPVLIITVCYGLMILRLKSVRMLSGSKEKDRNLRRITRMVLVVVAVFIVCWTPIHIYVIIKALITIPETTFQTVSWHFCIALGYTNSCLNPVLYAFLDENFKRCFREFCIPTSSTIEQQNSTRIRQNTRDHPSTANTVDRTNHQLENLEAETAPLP

compound | unit | readout-relation | Ki
CN1CC[C@]2(c3cccc(O)c3)Cc3[nH]c4ccc(Cl)cc4c3C[C@H]2C1 (relative stereo) | nM | > | 7090
Oc1cccc([C@]23CCN(CC4CC4)C[C@@H]2Cc2c([nH]c4ccccc24)C3)c1 (relative stereo) [Compound 19] | nM | = | 716
Cc1ccc2[nH]c3c(c2c1)C[C@H]1CN(C)CC[C@]1(c1cccc(O)c1)C3 (relative stereo) | nM | = | 6420
Oc1cccc([C@]23CCN(CC4CC4)C[C@@H]2Cc2c([nH]c4ccccc24)C3)c1 (single isomer, unassigned) [Compound 47] | nM | = | 1170
CN1CC[C@]2(c3cccc(O)c3)Cc3[nH]c4ccccc4c3C[C@H]2C1 (relative stereo) | nM | = | 1650
CN1CC[C@]2(c3cccc(O)c3)Cc3c(c4ccccc4n3C)C[C@H]2C1 (relative stereo) | nM | = | 1230
Oc1cccc([C@]23CCN(CC4CC4)C[C@@H]2Cc2c([nH]c4ccccc24)C3)c1 (single isomer, unassigned) [Compound 52] | nM | = | 81100

###

Ki data for UniProt:P41144 follow.
Sequence (P41144 whole entry): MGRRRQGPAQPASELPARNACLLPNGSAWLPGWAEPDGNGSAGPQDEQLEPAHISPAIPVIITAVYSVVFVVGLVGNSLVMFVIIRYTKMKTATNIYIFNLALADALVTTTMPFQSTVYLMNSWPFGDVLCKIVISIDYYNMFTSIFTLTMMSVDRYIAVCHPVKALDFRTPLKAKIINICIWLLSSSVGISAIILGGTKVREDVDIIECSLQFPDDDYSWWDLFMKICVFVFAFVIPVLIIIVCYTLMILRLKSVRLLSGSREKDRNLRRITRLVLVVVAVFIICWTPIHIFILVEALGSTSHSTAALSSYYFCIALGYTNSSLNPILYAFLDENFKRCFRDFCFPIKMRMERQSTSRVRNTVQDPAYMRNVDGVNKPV

compound | tested-target | readout-relation | Ki [nM]
Oc1cccc([C@]23CCN(CC4CC4)C[C@@H]2Cc2c([nH]c4c(F)cccc24)C3)c1 (relative stereo) | UniProt:P41144 | = | 370
C=CCN1CC[C@]2(c3cccc(O)c3)Cc3[nH]c4ccccc4c3C[C@H]2C1 (relative stereo) | UniProt:P41144 | = | 2240
Oc1cccc([C@]23CCN(CC4CC4)C[C@]2(O)Cc2c([nH]c4ccccc24)C3)c1 (relative stereo) | UniProt:P41144 | = | 1550
Oc1cccc([C@]23CCN(CC4CC4)C[C@@H]2Cc2c([nH]c4ccc(F)cc24)C3)c1 (relative stereo) | UniProt:P41144 | = | 342
Oc1cccc([C@]23CCN(CC4CC4)C[C@@H]2Cc2c([nH]c4c(Cl)cccc24)C3)c1 (relative stereo) | UniProt:P41144 | = | 936
Cn1c2c(c3ccccc31)C[C@H]1CN(CC3CC3)CC[C@]1(c1cccc(O)c1)C2 (relative stereo) | UniProt:P41144 | = | 144
CN1CC[C@]2(c3cccc(O)c3)Cc3[nH]c4ccccc4c3C[C@H]2C1 (relative stereo) | UniProt:P41144 | > | 5970
